Target: SARS-COV-2 RBD extracellular domain expressed with a C-terminal mouse IgG2a Fc (SARS-CoV-2)
Experiment: Biacore SPR, mAb captured on anti-hFc, 25 C
Please provide measured koff for the entries that follow.
Numbers only, in s⁻¹.

mAb14312 (antibody, V domains shown) VH: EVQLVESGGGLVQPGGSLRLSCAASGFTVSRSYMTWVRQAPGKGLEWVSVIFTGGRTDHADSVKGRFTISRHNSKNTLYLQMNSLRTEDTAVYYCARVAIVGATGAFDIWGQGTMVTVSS VL: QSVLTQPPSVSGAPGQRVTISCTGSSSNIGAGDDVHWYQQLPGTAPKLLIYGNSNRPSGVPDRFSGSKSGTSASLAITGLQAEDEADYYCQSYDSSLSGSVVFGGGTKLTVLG
5.6e-05
mAb14256 (antibody, V domains shown) VH: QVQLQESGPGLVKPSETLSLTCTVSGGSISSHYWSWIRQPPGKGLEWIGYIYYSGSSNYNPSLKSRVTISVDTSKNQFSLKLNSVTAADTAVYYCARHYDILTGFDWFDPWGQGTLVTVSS VL: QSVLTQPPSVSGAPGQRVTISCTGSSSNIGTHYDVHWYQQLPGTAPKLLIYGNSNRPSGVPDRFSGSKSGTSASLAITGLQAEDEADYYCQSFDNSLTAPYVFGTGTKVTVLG
0.000181

Next item in the queue.
The measured koff associated with mAb15166 (antibody, V domains shown) VH: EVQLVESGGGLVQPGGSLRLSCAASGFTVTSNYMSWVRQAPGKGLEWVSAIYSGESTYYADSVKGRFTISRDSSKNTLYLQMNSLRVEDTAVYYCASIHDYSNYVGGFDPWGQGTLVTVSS VL: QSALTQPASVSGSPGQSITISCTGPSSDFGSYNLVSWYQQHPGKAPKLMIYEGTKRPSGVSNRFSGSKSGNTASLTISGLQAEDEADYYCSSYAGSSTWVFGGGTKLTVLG reads 1.62e-05
